Data credit: PubChem BioAssay (NCI)

System: MCF7 breast
protocol.summary: NCI tumour cell line growth inhibition, 48 h
Examples of molecules with documented TGI follow.

INSERT INTO assay_data (molecule, assay_result) VALUES
  ('COc1ccc(/C(C)=C(\c2ccc(Cl)cc2)c2ccc(OCCN3CCCCC3)cc2)cc1F', '8.24 µM'),
  ('O=C1C2=C(Nc3cc([N+](=O)[O-])ccc3N2)OC1c1c[nH]c2ccc(COc3ccccc3)cc12 (stereo not given)', '> 100 µM'),
  ('COc1cc(C2c3cc4c(c(O)c3C(=O)C3CCC(=O)N32)OCO4)cc(OC)c1OC (stereo not given)', '> 100 µM'),
  ('Cc1ccc(-c2cn3c(nc4ccccc43)c(C)n2)cc1', '> 100 µM');

Turning now to a further record.
# returns recorded TGI (system: MCF7 breast) for C/C=C\C(C)=C/C(C)C(=O)CC(O)CC1CC(=O)NC(=O)C1 (stereo not given) > 100 µM

* * *

Tested on: SR leukemia
protocol.summary: NCI tumour cell line growth inhibition, 48 h; in the data active = GI50 below about 0.43 µM; inactive = the rest
Valid outcomes are listed here; reply with one: active, inactive

Before answering, review these 3 worked examples.
INSERT INTO assay_data (compound, class_name) VALUES
  ('CN1CCN(Cc2ccc(NC(=O)c3cncc(C#Cc4c(N)ncc5ccc(F)cc45)c3)cc2C(F)(F)F)CC1', 'inactive'),
  ('COc1c(C)cnc(Cn2cnc3c(Cl)nc(N)nc32)c1C', 'active'),
  ('Cn1c([N+](=O)[O-])cnc1/C=C1\Oc2ccc(Cl)cc2C1=O', 'active');

Called result for CN(C)c1ccc(/C=C/C(=O)c2ccc(Nc3nc(Nc4ccc(F)cc4)nc(Nc4ccc(Cl)cc4)n3)cc2)cc1 inactive

Which outcome was entered for the compound Cn1cc(C2=C(c3cn(CCCSC(=N)N)c4ccccc34)C(=O)NC2=O)c2ccccc21 in this test? inactive

Name the outcome recorded for CCN(CC)CCC(CNc1c2ccc(Cl)cc2nc2ccc(OC)cc12)c1ccccc1 (stereo not drawn) in the assay. active

* * *

System: HCT-116 colon
protocol.summary: NCI tumour cell line growth inhibition, 48 h
Classify as follows. Reported TGI greater than or equal to 10 µM: true. Reported TGI below: false.

Sample answers from the record:
INSERT INTO results (smi, tested_system, class_name) VALUES
  ('O=S(=O)(CC#CCS(=O)(=O)c1ccccc1)c1ccccc1', 'HCT-116 colon', 'false'),
  ('Oc1c(Br)cc(Br)c2cccnc12', 'HCT-116 colon', 'true'),
  ('CCS(=O)(=O)Nc1ccc(Oc2ccc(F)cc2F)c(-c2cn(C)c(=O)c3[nH]ccc23)c1', 'HCT-116 colon', 'true'),
  ('O=C(/C=C/CN1CCCCC1)Nc1cc2c(Nc3ccc(F)c(Cl)c3F)ncnc2cc1OCCOC(F)F', 'HCT-116 colon', 'false');

# next compound below
Hello, I need to know if Cc1ccc(-n2cc(-c3ccc(Cl)cc3)c3c(NNC(=S)NCc4ccccc4)ncnc32)cc1 has measured TGI not below 10 µM. Thanks! true

* * *

The entries below come with measured TGI values attached.
Test system: NCI-H226 lung
protocol.summary: NCI tumour cell line growth inhibition, 48 h

INSERT INTO measurements (compound, endpoint_name, assay_result) VALUES
  ('O=C(/C=C\c1ccc(Cl)c(Cl)c1)c1ccccc1', 'TGI', '30.7 µM'),
  ('CC/C(=C(\c1ccccc1)c1ccc(OCC[N+](C)(C)C)cc1)c1ccccc1', 'TGI', '26.7 µM'),
  ('CC(C)Oc1c(O)c2c3c(oc(=O)n3C=CC2c2ccccc2F)c1OC(C)C (centres undefined)', 'TGI', '> 100 µM');

Any idea what TGI was measured for CCO/C=N/C1=C(C#N)C(c2ccc(OC)c(OC)c2)c2c(-c3ccccc3)nn(-c3ccccc3)c2O1 (centres undefined) ? 32.9 µM

Entry O=C(CSCC(=O)N/N=C\c1cc(Br)cc(Br)c1O)N/N=C\c1cc(Br)cc(Br)c1O has what TGI? 58.2 µM

Entry COC(=O)c1ccc2[nH]c3c(c2c1)CC(=O)Nc1ccccc1-3 : reported TGI = ? > 100 µM

Fill blank: measured TGI of the compound CN1CCN(Cc2ccc(NC(=O)c3cncc(C#Cc4c(N)ncc5ccc(F)cc45)c3)cc2C(F)(F)F)CC1 is ____. 1.75 µM

Quick check: TGI of CN(C)CCCn1c2c(c3ccc([N+](=O)[O-])cc3c1=O)C(=O)c1ccccc1-2 ? 24 µM

Item under review: CCN1CCc2sc3[nH]c(=S)n(C)c(=O)c3c2C1 . Reported TGI? > 100 µM

Need TGI of COc1cc(OC)cc(N(C)Cc2cnc3nc(N)nc(N)c3c2C)c1 , thanks. > 100 µM

Query (compound): Cc1[nH]c(=O)nc2c1C(=O)N(C(C)C)C(NC(C)C)S2 (centres undefined) ; field requested: TGI > 100 µM

Bench note: what TGI did CC(C)(C)C(=O)Cc1cc2c(cc1C(=O)O)S(=O)(=O)NC(C(C)(C)C)=C2 show? > 100 µM

Consider the compound COc1cc(C=Nc2ccc(Oc3ccc(Cl)cc3)c(Cl)c2)cc(OC)c1OC and give its measured TGI. 80.9 µM

Please give the measured TGI for this compound: CC(C)(O)C1CC(=O)C(C)(C2C(O)CC3(C)C4CC=C5C(CCC(O)C5(C)C)C4(C)C(=O)CC23C)O1 (centres undefined) > 100 µM

* * *

Here the recorded TGI is given for each entry.
Test system: PC-3 prostate
protocol.summary: NCI tumour cell line growth inhibition, 48 h

Solved entries (count: 3):
INSERT INTO measurements (compound, endpoint_name, assay_result) VALUES
  ('Cc1ccc(-c2cn3c(nc4ccccc43)c(C)n2)cc1', 'TGI', '> 100 µM'),
  ('O=C(c1ccccc1)c1cc(-c2ccccc2)c(-c2ccccc2)[nH]c(=O)c1=O', 'TGI', '> 100 µM'),
  ('O=C1CSC(c2ccc(Cl)cc2)N1c1ccc(-n2c(-c3ccccc3)nc3ccccc3c2=O)cc1 (centres undefined)', 'TGI', '> 100 µM');

Now for the compound whose TGI we want.
Observed TGI on PC-3 prostate for CCCCc1ccc(C(N)=O)nc1 , please. > 100 µM

* * *

Quick list: TGI per entry.
System: SNB-75 CNS
protocol.summary: NCI tumour cell line growth inhibition, 48 h

// below: answered compounds
INSERT INTO results (compound, assay_result) VALUES
  ('Nc1nc(NC(=O)C2=NS(=O)(=O)c3cc(S(N)(=O)=O)c(Cl)cc3N2)n[nH]1', '> 100 µM'),
  ('CCOC(=O)C1(C/C=C\CBr)CCCCCCC1=O (stereo not drawn)', '> 100 µM');

Now, please, on to the next compound.
Recorded TGI for O=C(Nc1cccc(Cl)c1)c1cc2cc(N=Nc3ccc(Br)cc3)ccc2oc1=O with SNB-75 CNS, please? > 100 µM

* * *

System: SK-OV-3 ovarian
protocol.summary: NCI tumour cell line growth inhibition, 48 h
endpoint.name: log10 of TGI (log10 of the value in µM)
Field: value | Transform: log10 | Quantity: TGI | Unit: µM

Consider the following illustrative entries.
INSERT INTO measurements (compound, tested_system, assay_result) VALUES
  ('Cn1cc(C2=C(c3cn(CCCSC(=N)N)c4ccccc34)C(=O)NC2=O)c2ccccc21', 'SK-OV-3 ovarian', 1.19),
  ('COc1ccc(/C=C2\CC(C)CC3C2=NN(C(C)=O)C3c2ccc(OC)c(OC)c2)cc1OC (stereo not drawn)', 'SK-OV-3 ovarian', 1.88),
  ('O=C1/C(=C/c2ccc([N+](=O)[O-])s2)Oc2ccc(Cl)cc21', 'SK-OV-3 ovarian', 0.65),
  ('N#CC1=C(N)Oc2c(ccc3ccccc23)C1c1ccccc1Cl (stereo not drawn)', 'SK-OV-3 ovarian', 1.64),
  ('Cc1cc(C)n(CN(Cn2nc(C)cc2C)c2ccc(N(Cn3nc(C)cc3C)Cn3nc(C)cc3C)cc2)n1', 'SK-OV-3 ovarian', 1.88),
  ('CCCCCC(=O)OC[n+]1ccc2c(C)c3[nH]c4ccccc4c3c(C)c2c1', 'SK-OV-3 ovarian', 0.71);

Item: Clc1ccc(CCN2CCN(CCCc3ccccc3)CC2)cc1Cl Test system: SK-OV-3 ovarian Read-out: log10 of TGI Value: ? 1.55

Notebook entry, SK-OV-3 ovarian assay: log10 of TGI of COc1cc2c(cc1Nc1nc(Nc3ccsc3C(N)=O)c3cc[nH]c3n1)N(C(=O)CN(C)C)CCC2 = ? 0.69

* * *

Parameter TGI: see the listing below.
System: HCT-116 colon
protocol.summary: NCI tumour cell line growth inhibition, 48 h

INSERT INTO results (smi, assay_result) VALUES
  ('Cn1cc(C2=C(c3cn(CCCSC(=N)N)c4ccccc34)C(=O)NC2=O)c2ccccc21', '4.62 µM'),
  ('COc1cc2c(cc1Nc1nc(Nc3ccsc3C(N)=O)c3cc[nH]c3n1)N(C(=O)CN(C)C)CCC2', '3.79 µM');

Alright, here's another compound for you.
For CCCCCCCCCCCCCCCCCc1nc(C#N)c(N)o1 , what is its reported TGI? > 100 µM
